Entry source: PubChem BioAssay (NCI)

Test system: OVCAR-8 ovarian
test.protocol: NCI-60 one-dose screen, 48 h (100 = growth as untreated, 0 = no growth, -100 = all killed)
test.settings: 10 µM unless noted
Compounds without any hit were thinned out: in the full panel of roughly 83,000, 20% have a hit.
Examples of molecules with documented growth follow.
API: value field is a number in %; no unit string.

{"columns": ["molecule", "endpoint.value"],
 "data": [
  ["CCCn1c(NC(=O)c2cccc(C(N)=O)c2)nc2cc(CN3CCCCC3)ccc21", 117]
]}

Query molecule follows.
For COc1ccc(N=Nc2c(N)nn3c(-c4ccc([N+](=O)[O-])cc4)ccnc23)cc1 , write its growth.
107
